- ASSAY_TARGET: human recombinant PARP1 (Homo sapiens)
- Construct: made in house
- Sequence (P09874 whole entry): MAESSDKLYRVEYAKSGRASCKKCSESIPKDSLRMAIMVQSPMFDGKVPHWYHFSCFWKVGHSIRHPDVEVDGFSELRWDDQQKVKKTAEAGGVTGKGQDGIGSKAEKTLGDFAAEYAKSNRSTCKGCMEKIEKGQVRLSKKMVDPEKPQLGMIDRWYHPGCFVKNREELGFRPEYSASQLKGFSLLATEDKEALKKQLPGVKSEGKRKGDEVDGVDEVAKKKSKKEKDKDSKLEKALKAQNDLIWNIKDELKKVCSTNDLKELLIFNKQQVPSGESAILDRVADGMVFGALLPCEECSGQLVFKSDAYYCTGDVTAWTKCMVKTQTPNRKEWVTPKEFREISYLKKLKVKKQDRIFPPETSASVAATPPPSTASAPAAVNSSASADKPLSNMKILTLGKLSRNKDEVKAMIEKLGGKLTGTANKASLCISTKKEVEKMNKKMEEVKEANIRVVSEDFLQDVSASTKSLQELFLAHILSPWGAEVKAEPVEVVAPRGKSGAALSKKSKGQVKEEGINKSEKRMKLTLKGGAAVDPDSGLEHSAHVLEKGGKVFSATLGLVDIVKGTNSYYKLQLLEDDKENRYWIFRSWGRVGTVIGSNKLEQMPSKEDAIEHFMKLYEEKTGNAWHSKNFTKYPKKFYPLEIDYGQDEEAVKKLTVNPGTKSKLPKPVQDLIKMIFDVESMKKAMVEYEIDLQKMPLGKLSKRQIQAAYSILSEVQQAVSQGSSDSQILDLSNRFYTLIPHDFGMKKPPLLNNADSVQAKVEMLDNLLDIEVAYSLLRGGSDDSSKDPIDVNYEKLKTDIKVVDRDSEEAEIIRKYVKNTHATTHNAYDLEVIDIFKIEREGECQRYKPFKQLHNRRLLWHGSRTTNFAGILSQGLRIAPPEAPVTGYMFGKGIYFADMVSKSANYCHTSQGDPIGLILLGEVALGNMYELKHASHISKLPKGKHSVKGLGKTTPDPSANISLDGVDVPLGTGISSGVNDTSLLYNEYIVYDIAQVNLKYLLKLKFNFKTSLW
- ASSAY_NAME: PARP1 activity by inclusion of α-[32P]-NAD+ in poly(ADP-ribose)
- Type: biochemical
- RUN_PARAMETERS: in the presence of 1 mM compound; read-out: Residual activity of PARP1
Label True when remaining activity at 1000 µM is strictly below 90%; at or above that, label False.

Before answering, review these 5 worked examples.
| MOLECULE | CATEGORY_LABEL |
| --- | --- |
| OC[C@H]1O[C@@H](n2cnc3c(NCc4ccc(-c5ccccc5)cc4)ncnc32)[C@H](O)[C@@H]1O | False |
| Nc1ncnc2c1ncn2[C@@H]1O[C@H](CO)[C@@H](O)[C@H]1O [compound 3, reference compound] | False |
| O[C@@H]1[C@H](O)[C@@H](COC(c2ccccc2)(c2ccccc2)c2ccccc2)O[C@H]1n1cnc2c(NC(c3ccccc3)(c3ccccc3)c3ccccc3)ncnc21 | False |
| OC[C@H]1O[C@@H](n2cnc3c(NC(c4ccccc4)(c4ccccc4)c4ccccc4)ncnc32)[C@H](O)[C@@H]1O | False |
| Nc1nc2c(ncn2[C@@H]2O[C@H](CO)[C@@H](O)[C@H]2O)c(=O)[nH]1 [compound 1, reference compound] | True |

Continue with the next molecule.
Task: Dear colleague, could you confirm whether remaining activity at 1000 µM of O=C(OC[C@H]1O[C@@H](n2cnc3c(Cl)nc(F)nc32)[C@H](OC(=O)c2ccccc2)[C@@H]1OC(=O)c1ccccc1)c1ccccc1 falls below 90%? Thanks.
Output: True

----------
Here, each record is paired with measured Enhancement of Tpc Cytotoxicity by 10 μM Compounds data.
- System: HeLa cells
- ASSAY_NAME: Effect of compounds on topotecan cytotoxicity (EZ4U test)
- Type: cell-based, human
- RUN_PARAMETERS: compound 10 μM in combination with Tpc
Number first, unit second: that is the form wanted.

| COMPOUND | ASSAY_TARGET | REPORTED_RESULT |
| --- | --- | --- |
| O=C(OC[C@H]1O[C@@H](n2cnc3c(O)ncnc32)[C@H](OC(=O)c2ccccc2)[C@@H]1OC(=O)c1ccccc1)c1ccccc1 [6a, 2′,3′,5′-Tri-O-benzoylinosine] | HeLa cells | 1.8 Times |
| O=C(OC[C@H]1O[C@@H](n2cnc3c(Cl)ncnc32)[C@H](OC(=O)c2ccccc2)[C@@H]1OC(=O)c1ccccc1)c1ccccc1 [compound 6b] | HeLa cells | 1.9 Times |
| OC[C@H]1O[C@@H](n2cnc3c(NCc4c5ccccc5cc5ccccc45)ncnc32)[C@H](O)[C@@H]1O [5c] | HeLa cells | 2.2 Times |

Task: Identify measured Enhancement of Tpc Cytotoxicity by 10 μM Compounds corresponding to OC[C@H]1O[C@@H](n2cnc3c(NC(c4ccccc4)(c4ccccc4)c4ccccc4)ncnc32)[C@H](O)[C@@H]1O [compound 5b]
Output: 1.7 Times

----------
- ASSAY_TARGET: human recombinant PARP2 (Homo sapiens)
- Construct: made in house
- Sequence (Q9UGN5 whole entry): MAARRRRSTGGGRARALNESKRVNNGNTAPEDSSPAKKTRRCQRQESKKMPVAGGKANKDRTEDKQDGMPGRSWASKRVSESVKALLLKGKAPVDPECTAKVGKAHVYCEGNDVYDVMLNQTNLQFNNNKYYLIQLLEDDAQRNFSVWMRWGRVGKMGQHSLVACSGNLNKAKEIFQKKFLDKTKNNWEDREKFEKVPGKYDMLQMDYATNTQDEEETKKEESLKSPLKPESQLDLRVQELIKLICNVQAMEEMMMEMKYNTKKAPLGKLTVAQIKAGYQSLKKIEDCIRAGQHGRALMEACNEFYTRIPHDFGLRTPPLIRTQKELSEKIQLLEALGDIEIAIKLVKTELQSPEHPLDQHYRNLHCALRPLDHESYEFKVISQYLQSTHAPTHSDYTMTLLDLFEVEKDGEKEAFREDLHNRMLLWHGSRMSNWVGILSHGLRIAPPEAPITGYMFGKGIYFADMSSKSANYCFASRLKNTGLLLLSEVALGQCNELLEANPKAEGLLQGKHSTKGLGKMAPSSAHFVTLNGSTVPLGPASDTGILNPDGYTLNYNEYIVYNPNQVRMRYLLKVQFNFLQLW
- ASSAY_NAME: PARP2 activity by inclusion of α-[32P]-NAD+ in poly(ADP-ribose)
- Format: biochemical
- RUN_PARAMETERS: in the presence of 1 mM compound; read-out: Residual activity of PARP2
Label 1 when remaining activity at 1000 µM is strictly below 90%; at or above that, label -1.

| COMPOUND | ASSAY_TARGET | CATEGORY_LABEL |
| --- | --- | --- |
| OC[C@H]1O[C@@H](n2cnc3c(NCc4ccc(-c5ccccc5)cc4)ncnc32)[C@H](O)[C@@H]1O [5a] | human recombinant PARP2 (Homo sapiens) | -1 |

Continue with the next compound.
Task: Dear colleague, could you confirm whether remaining activity at 1000 µM of O=C(OC[C@H]1O[C@@H](n2cnc3c(Cl)nc(Cl)nc32)[C@H](OC(=O)c2ccccc2)[C@@H]1OC(=O)c1ccccc1)c1ccccc1 [compound 6d] falls below 90%? Thanks.
Output: 1

src = paper PMC9822400
